test system: M. tuberculosis H37Rv growth inhibition, 7H9 media; experiment: M. tuberculosis growth inhibition, HTS (AID 449762); settings: measured here: IC90 growth inhibition;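 note: bacterial growth assessed after seven days of incubation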
Inconclusive results are not listed.
Lab note: anything with IC90 below 30 µM is marked MET; values at 30 µM or higher are marked NOT MET.

Input line: Dear reviewer, please state whether CCOC(=O)c1c(CC(C)C)csc1NC(=O)CCl has IC90 strictly beneath 30 µM.
Output line: MET

Input line: Now consider CCN(CC)CCN(C(=O)c1ccc(S(=O)(=O)N2CCCC2)cc1)c1nc2cc(C)cc(C)c2s1 and answer again.
Output line: MET

Input line: Now consider C[N+](C)(CCCCCC[N+](C)(C)CCCN1C(=O)c2cccc3cccc(c23)C1=O)CCCN1C(=O)c2cccc3cccc(c23)C1=O and answer again.
Output line: MET

Input line: Now consider O=C(O)c1ccc(N2C(=O)/C(=C/c3ccc(-c4ccc([N+](=O)[O-])cc4)o3)C=C2c2ccccc2)cc1 and answer again.
Output line: NOT MET

Input line: Now consider CCCCN(C)CCNC(=O)c1ccc(Cn2c(=S)[nH]c3ccc(Br)cc3c2=O)cc1 and answer again.
Output line: MET

Input line: Now consider CN(c1ccccc1)S(=O)(=O)c1cccc(C(=O)NCc2ccccc2CN2CCCC2)c1 and answer again.
Output line: NOT MET

Input line: Now consider COC(=O)COc1ccc(-c2nn(C)c(=O)c3ccccc23)cc1 and answer again.
Output line: MET

Input line: Now consider CC12CCC(=O)N1C(C(=O)Nc1ccc(SC(F)F)cc1)CS2 (configuration not stated) and answer again.
Output line: NOT MET

Input line: Now consider CC1(C)CC(=O)C2=C(C1)OC(N)=C([N+](=O)[O-])C2c1ccc(C#N)s1 (configuration not stated) and answer again.
Output line: NOT MET

Input line: Now consider Cc1c(Cl)cccc1NC(=O)CN1CCC(C(O)(c2ccccc2)c2ccccc2)CC1 and answer again.
Output line: NOT MET

Input line: Now consider COc1ccc(C2CC(=O)c3cnc(Nc4cc(C)cc(C)c4)nc3C2)cc1 (configuration not stated) and answer again.
Output line: MET

Input line: Now consider O=C1c2ccccc2-c2onc3ccc(Oc4ccccc4)c1c23 and answer again.
Output line: MET

Input line: Now consider CN(C)CCCNC(=O)c1ccc(-c2nc(-c3ccc(Cl)cc3)cs2)cc1 and answer again.
Output line: NOT MET

Input line: Now consider COC(=O)C1=C(c2ccc(OCc3ccccc3)cc2)C[C@@H]2CC[C@H]1N2C(=O)NC1CCN(Cc2ccccc2)CC1 and answer again.
Output line: MET

Input line: Now consider O=C(Nc1nc2c(s1)CCCC2)c1cc(-c2ccc3c(c2)OCO3)nc2ccccc12 and answer again.
Output line: NOT MET

Input line: Now consider Cc1ccc2ccc3ccc(C)nc3c2n1 and answer again.
Output line: MET

Input line: Now consider CCCn1nnnc1NC(=O)c1ccc(C)cc1Cl and answer again.
Output line: MET

Input line: Now consider Cc1cccc(-c2ncc(CN3CCC(CO)(CCCc4ccccc4)CC3)cn2)c1 and answer again.
Output line: NOT MET

Input line: Now consider O=c1oc2ccccc2c(O)c1/C=C1\C=Nc2ccccc21 and answer again.
Output line: NOT MET

Input line: Now consider COc1cc2c(cc1OC)CN(CCC(=O)c1ccc(Br)cc1)CC2 and answer again.
Output line: MET

Input line: Now consider CCC1(c2ccccc2)ON(c2c(Br)cccc2Br)C1=O (configuration not stated) and answer again.
Output line: NOT MET

Input line: Now consider CCOC(=O)c1sc(NC(=O)CN2C(=O)NC3(CC(C)CC(C)(C)C3)C2=O)cc1C (configuration not stated) and answer again.
Output line: NOT MET

Input line: Now consider CCN1CCN(Cc2ccc(NC(=O)c3cc(NC(=O)c4cncc(-c5cccs5)c4)cc(OC)c3)cc2C(F)(F)F)CC1 and answer again.
Output line: MET

Input line: Now consider COc1cc(OC)c(OC)cc1CCC(C)NCCC(c1ccccc1)c1ccccc1 (configuration not stated) and answer again.
Output line: MET

Input line: Now consider CCCCCC1CC(CC(=O)NC(=S)Nc2ccc([N+](=O)[O-])cc2)C(=O)O1 (configuration not stated) and answer again.
Output line: NOT MET

Input line: Now consider CC(C)Oc1ccc(C(=O)N/N=C/c2ccc(-c3ccc(S(=O)(=O)Nc4ncccn4)cc3)o2)cc1 and answer again.
Output line: NOT MET

Input line: Now consider O=C(COC(=O)c1cccs1)c1ccccc1 and answer again.
Output line: NOT MET

Input line: Now consider COc1cccc(CC2(CO)CCCN(Cc3[nH]c4ccc(C)cc4c3C)C2)c1 (configuration not stated) and answer again.
Output line: NOT MET

Input line: Now consider Cc1ccc2c(c1)c(C1=c3ccccc3=NC1=O)c(O)n2C and answer again.
Output line: MET

Input line: Now consider O=C1/C(=C/Nc2ccc3c(c2)OCO3)CCc2ccccc21 and answer again.
Output line: NOT MET

Input line: Now consider CCOC(=O)CSc1nnc(-c2c[nH]c3ccccc23)o1 and answer again.
Output line: NOT MET

Input line: Now consider CON(C)c1nc(C2CCCCC2)c2cc(C)ccc2n1 and answer again.
Output line: NOT MET

Input line: Now consider O=C(NCCCN1CCOCC1)c1cc2c([nH]c3ccccc32)c(-c2cccc(Br)c2)n1 and answer again.
Output line: MET

Input line: Now consider CSc1ccccc1OCc1cc(C(=O)N2CCC(Oc3cccnc3)CC2)no1 and answer again.
Output line: MET

Input line: Now consider CC1CCCC(NC(=O)NC(=O)CCl)C1C (configuration not stated) and answer again.
Output line: MET

Input line: Now consider O=c1[nH]c(=O)n(C2CCCO2)cc1F (configuration not stated) and answer again.
Output line: NOT MET

Input line: Now consider CC1=C(C)C(=O)C(CCCCC#CCCCC#CCO)=C(C)C1=O and answer again.
Output line: MET

Input line: Now consider CN(C)CCCN(C(=O)c1cc(-c2cccs2)nc2ccccc12)c1nc2ccc(F)cc2s1 and answer again.
Output line: NOT MET

Input line: Now consider CCOc1ccc(NC(=O)c2sc3nc(C)nc(N4CCOCC4)c3c2C)cc1 and answer again.
Output line: NOT MET

====

Consider the following compounds; for each one, report its IC90.
tested on: M. tuberculosis H37Rv growth inhibition, 7H9 media; assay: M. tuberculosis growth inhibition, HTS (AID 449762); conditions: measured here: IC90 growth inhibition;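 note: bacterial growth assessed after seven days of incubation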
Results filed as inconclusive are left out.
State the answer as a number, implicitly in µM.

Input line: # query: IC90 | item CCCCS/C(N)=N/N=C/c1cc(C)ccc1O | system: M. tuberculosis H37Rv growth inhibition, 7H9 media
Output line: 13.9

Input line: Now consider COc1cc(/C=N/NC(=O)COc2ccc(C)cc2)ccc1OC(=O)c1cccs1 and answer again.
Output line: 30.2

Input line: Now consider COc1cccc(-c2cnc(NCc3cc(Cl)ccc3O)n2C)c1 and answer again.
Output line: 22.9

Input line: Now consider COc1ccc(CN(CCC(c2ccccc2)c2ccc(OC(C)C)cc2)C(=O)CCl)cc1OC (stereo not given) and answer again.
Output line: 12.5

Input line: Now consider C=C[C@]1(C)C[C@@H](OC(=O)CSCCN(CC)CC)[C@]2(C)C(C)CC[C@]3(CCC(=O)[C@H]32)[C@@H](C)[C@@H]1O (stereo not given in full) and answer again.
Output line: 7.7

Input line: Now consider CCC(=O)Oc1ccc(C(=O)Nc2ccc3c(c2)C(=O)N(C2CCCCC2)C3=O)cc1 and answer again.
Output line: 44.5

Input line: Now consider COc1cccc(/C=N/Nc2ncnc3scc(-c4ccccc4)c23)c1O and answer again.
Output line: 3.35

====

tested on: M. tuberculosis H37Rv growth inhibition, 7H9 media; assay: M. tuberculosis growth inhibition, HTS (AID 449762); details: measured here: IC90 growth inhibition;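 note: bacterial growth assessed after seven days of incubation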
Inconclusive results are not listed.
Lab note: anything with IC90 below 40 µM is marked yes (1); values at 40 µM or higher are marked no (0).

Input line: Dear reviewer, please state whether CC1(c2ccc(Cl)c(Cl)c2)NC(=S)N2C1NC(=S)N2c1ccccc1 (centres undefined) has IC90 strictly beneath 40 µM.
Output line: no (0)

Input line: Now consider O=[N+]([O-])c1cc(C=Nc2ccc3ccccc3c2)ccc1Br and answer again.
Output line: no (0)

Input line: Now consider Cc1ccc(Cn2nnnc2CN2CCC(c3nc4ccc(Cl)cc4[nH]3)CC2)cc1 and answer again.
Output line: yes (1)

Input line: Now consider CC(C)c1ccc(N2C(=O)NC(=O)/C(=C\C=C\c3ccco3)C2=O)cc1 and answer again.
Output line: yes (1)

Input line: Now consider Cc1cc(C)c2nc(-c3ccncc3)cc(C(=O)N3CCN(Cc4ccccc4Cl)CC3)c2c1 and answer again.
Output line: yes (1)

Input line: Now consider CCCn1c(=N)c(C(=O)NCc2ccc3c(c2)OCO3)cc2c(=O)n3cccc(C)c3nc21 and answer again.
Output line: yes (1)

Input line: Now consider COCc1nnc(NC(=O)C2CC(=O)N(c3ccc(C)c(Cl)c3)C2)s1 (centres undefined) and answer again.
Output line: no (0)

Input line: Now consider Cc1ccc(NCCC(=O)c2ccc(Br)cc2)cc1 and answer again.
Output line: yes (1)

Input line: Now consider Cc1sc2ncnc(Oc3ccc(-n4ccnc4)cc3)c2c1C and answer again.
Output line: no (0)

Input line: Now consider CC1=NN(c2ccccc2)C(=O)/C1=C\c1c(C)[nH]n(-c2ccccc2)c1=O and answer again.
Output line: no (0)

Input line: Now consider Cc1cc(NC2CCCCC2)nc(-c2ccccc2O)n1 and answer again.
Output line: no (0)

Input line: Now consider O=c1cc(-c2ccccc2Cl)oc2ccc([N+](=O)[O-])c(O)c12 and answer again.
Output line: yes (1)

Input line: Now consider COc1ccc2nc(NC(=O)C3CCCN(S(=O)(=O)c4cccs4)C3)sc2c1 (centres undefined) and answer again.
Output line: yes (1)

Input line: Now consider O=C(Nc1ccc([N+](=O)[O-])cc1)Nc1ccc(OC(F)F)c(Cl)c1 and answer again.
Output line: yes (1)

Input line: Now consider CCOc1cccc2cc(C(=O)Nc3nccs3)c(=O)oc12 and answer again.
Output line: yes (1)

Input line: Now consider Cc1noc2ncnc(Sc3ccc(Cl)cc3)c12 and answer again.
Output line: no (0)

Input line: Now consider O=C(CCl)NCCCCCCCCCNC(=O)CCl and answer again.
Output line: yes (1)

Input line: Now consider O=C(OCC#CCSc1nnc(-c2cccc3ccccc23)o1)c1cccs1 and answer again.
Output line: no (0)

Input line: Now consider Cc1ccc(NC(=O)COc2ccc(-n3ccnc3)cc2)cc1Cl and answer again.
Output line: yes (1)

Input line: Now consider CCCc1cc(C(N)=S)ccn1 and answer again.
Output line: no (0)

Input line: Now consider Cc1cccc(/C=c2\s/c(=C\C(=O)C(C)(C)C)[nH]c2=O)c1 and answer again.
Output line: yes (1)

Input line: Now consider Cc1nn(-c2ccccc2)nc1C(=O)c1c(C)[nH]n(-c2ccccc2)c1=O and answer again.
Output line: yes (1)

Input line: Now consider CC(C)c1ccc2c(c1)CCC1C(C)(CN)CCCC21C (centres undefined) and answer again.
Output line: yes (1)

Input line: Now consider Cc1nn(-c2ccccc2)c(N2CCCC2)c1/C=N/Nc1ccc(S(N)(=O)=O)cc1[N+](=O)[O-] and answer again.
Output line: no (0)

Input line: Now consider Cc1cc(C)c2oc(-c3ccc(C)c(NC(=S)NC(=O)/C=C/c4ccco4)c3)nc2c1 and answer again.
Output line: no (0)

Input line: Now consider O=C(NC(=S)Nc1ccc(N2CCCCC2)c(Cl)c1)c1cccs1 and answer again.
Output line: yes (1)

Input line: Now consider O=C(CCC(=O)OCc1ccc(C(=O)Oc2ccc(Cl)cc2)cc1)Nc1ccccc1 and answer again.
Output line: no (0)

Input line: Now consider O=C(OCC(=O)c1cccs1)C1=COCCO1 and answer again.
Output line: no (0)

Input line: Now consider O=c1c2c(nc3nc(NCc4ccc(Cl)cc4)[nH]n13)CCC2 and answer again.
Output line: yes (1)

Input line: Now consider COc1ccc(N2CN=C3SCC(=O)N3C2)cc1 and answer again.
Output line: no (0)

Input line: Now consider Cn1c(/C=N/Nc2nc3ccccc3[nH]2)nc2ccccc21 and answer again.
Output line: no (0)

Input line: Now consider NNc1nc2ccc(Cl)cc2s1 and answer again.
Output line: no (0)

Input line: Now consider CCOc1ccc(NC(=O)CSc2nc(O)c(C)c(=O)n2-c2ccc(F)cc2)cc1 and answer again.
Output line: yes (1)

Input line: Now consider Cc1nc2ccc(OC(=O)c3ccccc3)cc2s1 and answer again.
Output line: no (0)

Input line: Now consider C[C@]12C=CC(=O)C=C1CC[C@@H]1C2=CC[C@]2(C)[C@@H](C(=O)CN3CCN(c4cc(N5CCCC5)nc(N5CCCC5)n4)CC3)CC[C@@H]12 and answer again.
Output line: yes (1)

Input line: Now consider CCOC(=O)COc1cc(O)c2c(=O)cc(-c3ccccc3)oc2c1 and answer again.
Output line: yes (1)

Input line: Now consider Cc1cc(N/N=C2/CCCc3ccccc32)nc2ccccc12 and answer again.
Output line: yes (1)

Input line: Now consider CCN1CCN(c2oc(COc3ccc(-c4ccccc4)cc3)nc2C#N)CC1 and answer again.
Output line: no (0)

Input line: Now consider Cc1ccc(Cl)cc1N1CCN(CC(=O)NC2CCCc3ccccc32)CC1 (centres undefined) and answer again.
Output line: no (0)

Input line: Now consider CC(=O)c1c(N2CCCC2)[nH]c(-c2ccccc2)nc1=S and answer again.
Output line: no (0)

Input line: Now consider CCOC(=O)CNc1ccc(C(=O)OCC)cc1[N+](=O)[O-] and answer again.
Output line: yes (1)

Input line: Now consider Cc1cncn1CCc1nc2c3ccccc3nc(SCC(=O)Nc3cccc(Cl)c3)n2n1 and answer again.
Output line: yes (1)

Input line: Now consider Cn1c(=O)c2c3c(sc2n2c(SCC(N)=O)nnc12)CC(C(C)(C)C)CC3 (centres undefined) and answer again.
Output line: yes (1)

Input line: Now consider O=C(CCc1nnc(CCCc2ccccc2)o1)NCCCC1CCCC1 and answer again.
Output line: yes (1)
